This collection of values is drawn from PubChem BioAssay AID2060507.

This listing pairs compounds with measured viability, T/C.
Tested on: 519858-162-T-J1-PDC complex spheroid viability;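 note: spheroids exposed to compounds for 7 days; 100% = DMSO vehicle control viability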
Assay: Anticancer human tumor 519858-162-T-J1-PDC patient-derived colon adenocarcinoma cell line growth inhibition [GQUAD]
Settings: second compound 0.316 µM; first compound 10 µM; active compounds read low
Give just the number in %; leave the unit off.

Solved entries (count: 6):
>  <compound>
CC1COCCN1c1cc(C2(S(C)(=N)=O)CC2)nc(-c2ccnc3[nH]ccc23)n1 (stereo not given) + Cc1cnc(CNC(=O)c2c(=O)c3ccc(N4CCCN(C)CC4)nc3n3c2sc2ccccc23)cn1

>  <test-readout>
viability, T/C

>  <unit-text>
%

>  <obs-value>
66.6

$$$$
>  <compound>
CC(C)n1c(=O)n(C)c2cnc3cc(F)c(-c4ccc(OCCCN5CCCCC5)nc4)cc3c21 + Cc1cnc(CNC(=O)c2c(=O)c3ccc(N4CCCN(C)CC4)nc3n3c2sc2ccccc23)cn1

>  <test-readout>
viability, T/C

>  <unit-text>
%

>  <obs-value>
61

$$$$
>  <compound>
C=CC(=O)N1CCN(c2nc(=O)n(-c3c(C)ccnc3C(C)C)c3nc(-c4c(O)cccc4F)c(F)cc23)C(C)C1 (stereo not given) + Cc1[nH]c2ccc(F)cc2c1-c1nc2c3cccnc3c3ncccc3c2[nH]1

>  <test-readout>
viability, T/C

>  <unit-text>
%

>  <obs-value>
97.5

$$$$
>  <compound>
C#Cc1c(F)ccc2cc(O)cc(-c3ncc4c(N5CC6CCC(C5)N6)nc(OCC56CCCN5CC(F)C6)nc4c3F)c12 (stereo not given) + Cc1[nH]c2ccc(F)cc2c1-c1nc2c3cccnc3c3ncccc3c2[nH]1

>  <test-readout>
viability, T/C

>  <unit-text>
%

>  <obs-value>
66.1

$$$$
>  <compound>
COc1ncnc(C2CC2)c1-c1ncc2cnn(Cc3ccc(-c4nc(C(F)(F)F)cn4C(C)C)cc3)c2n1 + CN(C)c1ccc(Nc2c3ccc(NC(=O)CCN4CCCC4)cc3nc3cc(NC(=O)CCN4CCCC4)ccc23)cc1

>  <test-readout>
viability, T/C

>  <unit-text>
%

>  <obs-value>
84.9

$$$$
>  <compound>
COc1cc(C2c3cc4c(cc3C(OC3OC5COC(C)OC5C(O)C3O)C3COC(=O)C23)OCO4)cc(OC)c1O (stereo not given) + Cc1cnc(CNC(=O)c2c(=O)c3ccc(N4CCCN(C)CC4)nc3n3c2sc2ccccc23)cn1

>  <test-readout>
viability, T/C

>  <unit-text>
%

>  <obs-value>
45.1

$$$$

Query: Item: C=CCn1c(=O)c2cnc(Nc3ccc(N4CCN(C)CC4)cc3)nc2n1-c1cccc(C(C)(C)O)n1 + Cc1cnc(CNC(=O)c2c(=O)c3ccc(N4CCCN(C)CC4)nc3n3c2sc2ccccc23)cn1 Test system: 519858-162-T-J1-PDC complex spheroid viability Read-out: viability, T/C Value: ?;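 note: spheroids exposed to compounds for 7 days; 100% = DMSO vehicle control viability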
Result: 64.3

Query: Item: CC(=O)O[C@H]1C(=O)[C@@]2(C)[C@H]([C@H](OC(=O)c3ccccc3)[C@]3(O)C[C@H](OC(=O)[C@H](O)[C@@H](NC(=O)c4ccccc4)c4ccccc4)C(C)=C1C3(C)C)[C@]1(OC(C)=O)CO[C@@H]1C[C@@H]2O + Cc1[nH]c2ccc(F)cc2c1-c1nc2c3cccnc3c3ncccc3c2[nH]1 Test system: 519858-162-T-J1-PDC complex spheroid viability Read-out: viability, T/C Value: ?;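 note: spheroids exposed to compounds for 7 days; 100% = DMSO vehicle control viability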
Result: 126

Query: Item: CCCS(=O)(=O)Nc1ccc(F)c(C(=O)c2c[nH]c3ncc(-c4ccc(Cl)cc4)cc23)c1F + Cc1[nH]c2ccc(F)cc2c1-c1nc2c3cccnc3c3ncccc3c2[nH]1 Test system: 519858-162-T-J1-PDC complex spheroid viability Read-out: viability, T/C Value: ?;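 note: spheroids exposed to compounds for 7 days; 100% = DMSO vehicle control viability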
Result: 119

Query: Item: CC1COCCN1c1cc(C2(S(C)(=N)=O)CC2)nc(-c2ccnc3[nH]ccc23)n1 (stereo not given) + Cc1[nH]c2ccc(F)cc2c1-c1nc2c3cccnc3c3ncccc3c2[nH]1 Test system: 519858-162-T-J1-PDC complex spheroid viability Read-out: viability, T/C Value: ?;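 note: spheroids exposed to compounds for 7 days; 100% = DMSO vehicle control viability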
Result: 96.2
